EC50 values by entry
target: human somatostatin receptor subtype 2 (Homo sapiens); construct: expressed in transfected cells; experiment: Functional cAMP assay for SSTR2 agonists (HTRF) in CHO-K1 cells; format: cell-based; conditions: CHO-K1 cells stably expressing human SST2, 20 min; read-out: hSST2 cAMP Avg EC50
Sequence (P30874 whole entry): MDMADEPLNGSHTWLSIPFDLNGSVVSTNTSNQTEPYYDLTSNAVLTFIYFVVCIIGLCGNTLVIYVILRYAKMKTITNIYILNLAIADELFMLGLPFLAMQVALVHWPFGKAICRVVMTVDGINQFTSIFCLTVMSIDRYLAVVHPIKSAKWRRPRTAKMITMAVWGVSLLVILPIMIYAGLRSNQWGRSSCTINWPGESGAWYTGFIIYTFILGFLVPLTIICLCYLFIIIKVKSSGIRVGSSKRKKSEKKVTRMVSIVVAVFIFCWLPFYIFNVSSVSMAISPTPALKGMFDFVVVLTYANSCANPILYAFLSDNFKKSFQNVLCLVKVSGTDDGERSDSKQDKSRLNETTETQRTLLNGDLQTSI
Starred links: 1 amine or outer side, 2 acyl side, 3 side chain; linkers in the order of their positions; H or OH if unused. Non-standard residues stand in square brackets, D forms with d. Residues, ends and D or L forms follow the SMILES beside them. *: point of attachment. X1 = Cc1cc(F)cc(-c2cnc(NCCNC(=O)CCOCCC(=O)*)c(-c3nc4ccc(Cl)cc4[nH]3)c2N2CCC(N)CC2)c1; Dolaproine = CO[C@@H]([C@@H]1CCCN1)[C@@H](C)C(=O)O; Dil = CC[C@H](C)[C@H](NC)[C@@H](CC(=O)O)OC; PABC = O=C(OCc1ccc(N[*:1])cc1)[*:2]; X2 = C[C@@H](N*)[C@@H](O)c1ccccc1; dCya = N[C@H](CS(=O)(=O)O)C(=O)O; Cit = NC(=O)NCCC[C@H](N)C(=O)O; NMeV = CN[C@H](C(=O)O)C(C)C
Lab book: enter the figure in nM, no units written.

The following compounds have reported results that may help.
* Cc1cc(F)cc(-c2cnc(NCCNC(=O)CCOCCOCCOCCOCCNC(=O)CCCCC[N+]3=C(/C=C/C=C/C=C4/N(C)c5ccccc5C4(C)C)C(C)(C)c4ccccc43)c(-c3nc4ccc(Cl)cc4[nH]3)c2N2CCC(N)CC2)c1 | 0.39
* CC[C@H](C)[C@@H]([C@@H](CC(=O)N1CCC[C@H]1[C@H](OC)[C@@H](C)C(=O)N[C@H](C)[C@@H](O)c1ccccc1)OC)N(C)C(=O)[C@@H](NC(=O)[C@H](C(C)C)N(C)C(=O)OCc1ccc(NC(=O)[C@H](CCCNC(N)=O)NC(=O)[C@@H](NC(=O)[C@@H](CS(=O)(=O)O)NC(=O)CCOCCC(=O)NCCNc2ncc(-c3cc(C)cc(F)c3)c(N3CCC(N)CC3)c2-c2nc3ccc(Cl)cc3[nH]2)C(C)C)cc1)C(C)C [Compound 104] (X1-[dCya]V[Cit][PABC][NMeV]V[Dil][Dolaproine]-X2) | 0.062
* CC[C@H](C)[C@@H]([C@@H](CC(=O)N1CCC[C@H]1[C@H](OC)[C@@H](C)C(=O)N[C@H](C)[C@@H](O)c1ccccc1)OC)N(C)C(=O)[C@@H](NC(=O)[C@H](C(C)C)N(C)C(=O)OCc1ccc(O[C@@H]2O[C@H](C(=O)O)[C@@H](O)[C@H](O)[C@H]2O)c(NC(=O)[C@H](CCCNC(N)=O)NC(=O)[C@@H](NC(=O)CCOCCC(=O)NCCNc2ncc(-c3cc(C)cc(F)c3)c(N3CCC(N)CC3)c2-c2nc3ccc(Cl)cc3[nH]2)C(C)C)c1)C(C)C | 0.14
* CC[C@H](C)[C@@H]([C@@H](CC(=O)N1CCC[C@H]1[C@H](OC)[C@@H](C)C(=O)N[C@H](C)[C@@H](O)c1ccccc1)OC)N(C)C(=O)[C@@H](NC(=O)[C@H](C(C)C)N(C)C(=O)OCc1ccc(NC(=O)[C@H](CCCNC(N)=O)NC(=O)[C@@H](NC(=O)[C@@H](CCC(=O)O)NC(=O)CCOCCC(=O)NCCNc2ncc(-c3cc(C)cc(F)c3)c(N3CCC(N)CC3)c2-c2nc3ccc(Cl)cc3[nH]2)C(C)C)cc1C(=O)NCCN)C(C)C | 0.22
* COc1cc2cc(c1Cl)N(C)C(=O)CC(OC(=O)[C@@H](C)N(C)C(=O)CCS[C@@H]1CC(=O)N(CC3CCC(C(=O)NCCCC[C@H](N)C(=O)NCCNc4ncc(-c5cc(C)cc(F)c5)c(N5CCC(N)CC5)c4-c4nc5ccc(Cl)cc5[nH]4)CC3)C1=O)[C@]1(C)OC1[C@@H](C)C1C[C@@](O)(NC(=O)O1)[C@H](OC)/C=C/C=C(\C)C2 (stereo partly shown) | 0.12

Query string: Look up and report measured EC50 for this entry: CC[C@H](C)[C@@H]([C@@H](CC(=O)N1CCC[C@H]1[C@H](OC)[C@@H](C)C(=O)N[C@H](C)[C@@H](O)c1ccccc1)OC)N(C)C(=O)[C@@H](NC(=O)[C@H](C(C)C)N(C)C(=O)OCc1ccc(NC(=O)CCOCCOCCOCCOCCC(=O)NCCNc2ncc(-c3cc(C)cc(F)c3)c(N3CCC(N)CC3)c2-c2nc3ccc(Cl)cc3[nH]2)c(O[C@@H]2O[C@H](C(=O)O)[C@@H](O)[C@H](O)[C@H]2O)c1)C(C)C
Result string: 0.1

Query string: Look up and report measured EC50 for this entry: CC[C@H](C)[C@@H]([C@@H](CC(=O)N1CCC[C@H]1[C@H](OC)[C@@H](C)C(=O)N[C@H](C)[C@@H](O)c1ccccc1)OC)N(C)C(=O)[C@@H](NC(=O)[C@H](C(C)C)N(C)C(=O)OCc1ccc2cc1C(=O)NCCNC(=O)CC[C@H](NC(=O)CCOCCC(=O)NCCNc1ncc(-c3cc(C)cc(F)c3)c(N3CCC(N)CC3)c1-c1nc3ccc(Cl)cc3[nH]1)C(=O)N[C@@H](C(C)C)C(=O)N[C@@H](CCCNC(N)=O)C(=O)N2)C(C)C
Result string: 0.35

Query string: Look up and report measured EC50 for this entry: COc1cc2cc(c1Cl)N(C)C(=O)C[C@H](OC(=O)[C@H](C)N(C)C(=O)CCSSCCNC(=O)CCOCCNC(=O)C[C@@H](N)C(=O)NCCNc1ncc(-c3cc(C)cc(F)c3)c(N3CCC(N)CC3)c1-c1nc3ccc(Cl)cc3[nH]1)[C@]1(C)O[C@H]1[C@H](C)[C@@H]1C[C@@](O)(NC(=O)O1)[C@H](OC)/C=C/C=C(\C)C2
Result string: 0.21

Query string: Look up and report measured EC50 for this entry: CC[C@H](C)[C@@H]([C@@H](CC(=O)N1CCC[C@H]1[C@H](OC)[C@@H](C)C(=O)N[C@H](C)[C@@H](O)c1ccccc1)OC)N(C)C(=O)[C@@H](NC(=O)[C@H](C(C)C)N(C)C(=O)OCc1ccc(NC(=O)[C@H](C)NC(=O)[C@@H](NC(=O)CCOCCC(=O)N[C@@H](CS(=O)(=O)O)C(=O)NCCNc2ncc(-c3cc(C)cc(F)c3)c(N3CCC(N)CC3)c2-c2nc3ccc(Cl)cc3[nH]2)C(C)C)c(O[C@@H]2O[C@H](CO)[C@@H](O)[C@H](O)[C@H]2O)c1)C(C)C
Result string: 0.13

Query string: Look up and report measured EC50 for this entry: CC[C@H](C)[C@@H]([C@@H](CC(=O)N1CCC[C@H]1[C@H](OC)[C@@H](C)C(=O)N[C@H](C)[C@@H](O)c1ccccc1)OC)N(C)C(=O)[C@@H](NC(=O)[C@H](C(C)C)N(C)C(=O)OCc1ccc(NC(=O)[C@H](C)NC(=O)[C@@H](NC(=O)CCOCCC(=O)NCCNc2ncc(-c3cc(C)cc(F)c3)c(N3CCC(N)CC3)c2-c2nc3ccc(Cl)cc3[nH]2)C(C)C)c(O[C@@H]2O[C@H](CO)[C@@H](O)[C@H](O)[C@H]2O)c1)C(C)C
Result string: 0.13
